Assay: Locomotion measured as ambulatory time (modified tetrad assay)
Type: in vivo, mice
Conditions: C57bl/6j, mouse, in vivo; Table 4; read-out: Hypolocomotion ED50 ((95% CL)
readout: ED50 (mg/kg)
Give the value, in units of mg/kg, as a plain number.

Sure, the documented ED50 for CCCCCc1cc(O)c2c(c1)OC(C)(C)[C@@H]1CCC(C)=C[C@@H]21 [THC, (−)-trans-Δ^9-tetrahydrocannabinol] is 25.5

---

Assay: Reduction of body temperature (hypothermia)
Conditions: C57bl/6j, mouse, in vivo, Body Temp. ED50 ((95% CL) mg/kg), Table 4; hypothermia
readout: ED50 (mg/kg)
Give the value, in units of mg/kg, as a plain number.

Sure, the documented ED50 for CCCCCc1cc(O)c2c(c1)OC(C)(C)[C@@H]1CCC(C)=C[C@@H]21 [THC, (−)-trans-Δ^9-tetrahydrocannabinol] is 17.5
